Sourced from paper PMC8769072

biological target: EPS15 121-215, P42566
Sequence (P42566 121-215): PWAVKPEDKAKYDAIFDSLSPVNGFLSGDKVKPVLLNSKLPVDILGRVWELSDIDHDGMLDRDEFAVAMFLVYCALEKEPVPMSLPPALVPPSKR
readout: selected by phage display

{"columns": ["binder", "endpoint.value"],
 "data": [
  ["NPFSAAPAATTVVQTH [SAP130, Q9H0E3]", "confidence 3 (active)"],
  ["SSEVNIVNPFALESTI [SLC1A1, P43005]", "confidence 2 (active)"],
  ["PLLTGVSSSTNPFRPQ [GNG5, P63218]", "confidence 3 (active)"],
  ["YTNPFSDNHQSPFLEG [PRUNE2, Q8WUY3]", "confidence 2 (active)"],
  ["PLSPGNPFSPGTPISP [WNK4, Q96J92]", "confidence 3 (active)"]
]}
